# Tested on: SPNE 9912
# experimentalProtocol: Minimum inhibitory concentration (MIC) by agar dilution
# Type: cell-based
# setupConditions: Streptococcus pneumoniae, lowest concentration of drug that inhibits visible growth of the organism, strain SPNE 9912, read-out: Antibacterial Activity, Minimum Inhibitory Concentration (MIC μg/mL) SPNE 9912
assayMetric: MIC (µg/mL)
// units = µg/mL; emit number, no label

- molecule: "CC(=S)NC[C@H]1CN(c2ccc(C3C=CSCC3)c(F)c2)C(=O)O1 (stereo partly shown)"
  target: "SPNE 9912"
  MIC, µg/mL: 0.5
- molecule: "CC(=O)NC[C@H]1CN(c2cc(F)c(C3C=CS(=O)(=O)CC3)c(F)c2)C(=O)O1 (stereo partly shown)"
  target: "SPNE 9912"
  MIC, µg/mL: 1
- molecule: "CC(=O)NC[C@H]1CN(c2ccc(C3C=CS(=O)(=O)CC3)c(F)c2)C(=O)O1 (stereo partly shown)"
  target: "SPNE 9912"
  MIC, µg/mL: 0.25

**Q:** Requested read-out: MIC. Entry: O=C(NC[C@H]1CN(c2ccc(C3C=CS(=O)(=O)CC3)cc2)C(=O)O1)C(Cl)Cl (stereo partly shown)
**A:** 0.25

----------
# Tested on: SPNE 9912
# experimentalProtocol: Minimum inhibitory concentration (MIC) by agar dilution
# Assay type: cell-based
# setupConditions: Streptococcus pneumoniae, lowest concentration of drug that inhibits visible growth of the organism, strain SPNE 9912, read-out: Antibacterial Activity, Minimum Inhibitory Concentration (MIC μg/mL) SPNE 9912
Entries and their measured MIC follow.

Consider the worked cases shown below.
- compound: "O=C(NC[C@H]1CN(c2ccc(C3C=CS(=O)(=O)CC3)c(F)c2)C(=O)O1)C(F)F (stereo partly drawn)"
  assayMetric: "MIC"
  recordedResult: "0.5 µg/mL"
- compound: "O=C1O[C@@H](CNC(=S)C(F)F)CN1c1ccc(N2C=CS(=O)(=O)CC2)cc1"
  assayMetric: "MIC"
  recordedResult: "0.5 µg/mL"
- compound: "O=C(NC[C@H]1CN(c2ccc(N3C=CS(=O)(=O)CC3)c(F)c2)C(=O)O1)C(F)F"
  assayMetric: "MIC"
  recordedResult: "0.5 µg/mL"
- compound: "CC(=S)NC[C@H]1CN(c2ccc(C3C=C[S+]([O-])CC3)c(F)c2)C(=O)O1 (stereo partly drawn)"
  assayMetric: "MIC"
  recordedResult: "0.25 µg/mL"
- compound: "CCC(=O)NC[C@H]1CN(c2ccc(C3C=CS(=O)(=O)CC3)cc2)C(=O)O1 (stereo partly drawn)"
  assayMetric: "MIC"
  recordedResult: "1 µg/mL"
- compound: "CC(=O)NC[C@H]1CN(c2ccc(N3C=CS(=O)(=O)CC3)c(F)c2)C(=O)O1"
  assayMetric: "MIC"
  recordedResult: "0.5 µg/mL"

**Q:** Requested read-out: MIC. Entry: O=C(NC[C@H]1CN(c2cc(F)c(N3C=CS(=O)(=O)CC3)c(F)c2)C(=O)O1)C(Cl)Cl
**A:** 0.5 µg/mL

**Q:** Please give the result for O=C1O[C@@H](CNC(=S)C(F)F)CN1c1ccc(C2C=CS(=O)(=O)CC2)c(F)c1 (stereo partly drawn) too.
**A:** 0.25 µg/mL

**Q:** Please give the result for O=C(NC[C@H]1CN(c2cc(F)c(C3C=CS(=O)(=O)CC3)c(F)c2)C(=O)O1)C(Cl)Cl (stereo partly drawn) too.
**A:** 0.5 µg/mL
